Each recorded value in this set is attributed to patent US20190309072A1.

MEASUREMENT TARGET: T1, human ITGa3 protein (human, UniProt P26006 33-991)
T1 chain: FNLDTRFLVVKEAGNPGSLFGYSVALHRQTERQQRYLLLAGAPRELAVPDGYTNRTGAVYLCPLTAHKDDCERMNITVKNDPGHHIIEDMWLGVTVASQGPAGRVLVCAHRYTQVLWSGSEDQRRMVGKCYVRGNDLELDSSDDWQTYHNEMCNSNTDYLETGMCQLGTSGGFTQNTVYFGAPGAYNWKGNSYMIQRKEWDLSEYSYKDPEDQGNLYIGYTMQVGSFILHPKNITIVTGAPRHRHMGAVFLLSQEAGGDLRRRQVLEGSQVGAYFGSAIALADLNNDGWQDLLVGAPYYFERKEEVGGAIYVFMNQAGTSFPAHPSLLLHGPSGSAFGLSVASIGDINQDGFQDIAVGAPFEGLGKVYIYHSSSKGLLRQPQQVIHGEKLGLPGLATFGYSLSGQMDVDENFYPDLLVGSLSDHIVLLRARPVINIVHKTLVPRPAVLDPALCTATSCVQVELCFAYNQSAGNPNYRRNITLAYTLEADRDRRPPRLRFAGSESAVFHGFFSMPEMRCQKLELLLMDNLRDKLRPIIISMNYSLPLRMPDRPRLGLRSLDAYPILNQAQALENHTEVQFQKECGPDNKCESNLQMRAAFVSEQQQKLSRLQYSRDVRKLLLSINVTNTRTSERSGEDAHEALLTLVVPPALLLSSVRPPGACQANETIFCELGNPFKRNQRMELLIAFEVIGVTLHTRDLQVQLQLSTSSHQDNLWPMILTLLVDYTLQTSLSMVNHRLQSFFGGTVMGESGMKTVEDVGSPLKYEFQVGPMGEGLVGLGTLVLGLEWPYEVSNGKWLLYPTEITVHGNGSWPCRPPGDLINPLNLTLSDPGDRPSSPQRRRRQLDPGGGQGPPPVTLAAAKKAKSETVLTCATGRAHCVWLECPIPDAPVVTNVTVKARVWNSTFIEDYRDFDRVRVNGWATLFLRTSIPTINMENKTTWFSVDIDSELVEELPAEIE
PROTOCOL: ELISA; apparent Kd
EXPERIMENTAL ENDPOINT: pKd
Give only the number. pKd is defined as minus log10 of concentration in molar units.

Below: 5 binders and their reported pKd.
>>> value_measured("Lc1/Hc1G (antibody, V domains shown) VH: QVQLVQSGAEVKKPGSSVKVSCKASGYTFTEYIIHWVRQAPGQGLEWIGWFYPESGSVKYNEGFKGRATLTADKSTSTAYMELSSLRSEDTAVYYCARHEERDYYGYYAMDYWGQGTTVTVSS VL: DIQMTQSPSSLSASVGDRVTITCSASSSISSNYLHWYQQKPGKVPKLLIYRTSNLASGVPSRFSGSGSGTDYTLTISSLQPEDVATYYCQQGSSIPRFTSGGGTKVEIK")
9.64
>>> value_measured("ITGa3-VM2 (antibody, V domains shown) VH: EVQLQESGAELVKPGTSVRLSCKASGYTFTEYIIHWVKQRSGQGLEWIGWFYPESGSVKYNETFKGRATLTADKSSSTVYMELSRLTSEDSAVYFCARHEERDYYGYYAMDYWGQGTSVTVSS VL: DIVMTQTPTTLAASPGEKIIITCSASSSISSNYLHWYQQKPGFSPKLLIYRTSNLASGVPARFSGSGSGTSYSLTIGTMEAEDVATYYCQQGSSIPRFTSGSGTKLEIK")
9.64
>>> value_measured("Lc2/Hc2 (antibody, V domains shown) VH: QVQLVQSGAEVKKPGSSVKVSCKASGYTFTEYIIHWVRQAPGQGLEWIGWFYPESGSVKYNETFKGRATITADKSTSTAYMELSSLRSEDTAVYYCARHEERDYYGYYAMDYWGQGTTVTVSS VL: DIQMTQSPSSLSASVGDRVIITCSASSSISSNYLHWYQQKPGKVPKLLIYRTSNLASGVPSRFSGSGSGTDYTLTISSLQPEDVATYYCQQGSSIPRFTSGGGTKVEIK")
10.00
>>> value_measured("Lc2/Hc2G (antibody, V domains shown) VH: QVQLVQSGAEVKKPGSSVKVSCKASGYTFTEYIIHWVRQAPGQGLEWIGWFYPESGSVKYNEGFKGRATITADKSTSTAYMELSSLRSEDTAVYYCARHEERDYYGYYAMDYWGQGTTVTVSS VL: DIQMTQSPSSLSASVGDRVIITCSASSSISSNYLHWYQQKPGKVPKLLIYRTSNLASGVPSRFSGSGSGTDYTLTISSLQPEDVATYYCQQGSSIPRFTSGGGTKVEIK")
9.74
>>> value_measured("anti-ITGa3 huVM2 Hc2T62G/Lc1 antibody (antibody, V domains shown) VH: QVQLVQSGAEVKKPGSSVKVSCKASGYTFTEYIIHWVRQAPGQGLEWIGWFYPESGSVKYNEGFKGRATITADKSTSTAYMELSSLRSEDTAVYYCARHEERDYYGYYAMDYWGQGTTVTVSS VL: DIQMTQSPSSLSASVGDRVTITCSASSSISSNYLHWYQQKPGKVPKLLIYRTSNLASGVPSRFSGSGSGTDYTLTISSLQPEDVATYYCQQGSSIPRFTSGGGTKVEIKR")
9.74

**Q:** Please list pKd recorded for the binder Lc1/Hc2A (antibody, V domains shown) VH: QVQLVQSGAEVKKPGSSVKVSCKASGYTFTEYIIHWVRQAPGQGLEWIGWFYPESGSVKYNEAFKGRATITADKSTSTAYMELSSLRSEDTAVYYCARHEERDYYGYYAMDYWGQGTTVTVSS VL: DIQMTQSPSSLSASVGDRVTITCSASSSISSNYLHWYQQKPGKVPKLLIYRTSNLASGVPSRFSGSGSGTDYTLTISSLQPEDVATYYCQQGSSIPRFTSGGGTKVEIK
**A:** 9.57

**Q:** Please list pKd recorded for the binder Lc1/Hc1S (VH of SEQ ID NO: 4 and VL of SEQ ID NO: 12) (antibody, V domains shown) VH: QVQLVQSGAEVKKPGSSVKVSCKASGYTFTEYIIHWVRQAPGQGLEWIGWFYPESGSVKYSETFKGRATLTADKSTSTAYMELSSLRSEDTAVYYCARHEERDYYGYYAMDYWGQGTTVTVSS VL: DIQMTQSPSSLSASVGDRVIITCSASSSISSNYLHWYQQKPGKVPKLLIYRTSNLASGVPSRFSGSGSGTDYTLTISSLQPEDVATYYCQQGSSIPRFTSGGGTKVEIK
**A:** 9.74

**Q:** Please list pKd recorded for the binder Lc1/Hc2S (antibody, V domains shown) VH: QVQLVQSGAEVKKPGSSVKVSCKASGYTFTEYIIHWVRQAPGQGLEWIGWFYPESGSVKYSETFKGRATITADKSTSTAYMELSSLRSEDTAVYYCARHEERDYYGYYAMDYWGQGTTVTVSS VL: DIQMTQSPSSLSASVGDRVTITCSASSSISSNYLHWYQQKPGKVPKLLIYRTSNLASGVPSRFSGSGSGTDYTLTISSLQPEDVATYYCQQGSSIPRFTSGGGTKVEIK
**A:** 9.49

**Q:** Please list pKd recorded for the binder Lc2/Hc2S (antibody, V domains shown) VH: QVQLVQSGAEVKKPGSSVKVSCKASGYTFTEYIIHWVRQAPGQGLEWIGWFYPESGSVKYSETFKGRATITADKSTSTAYMELSSLRSEDTAVYYCARHEERDYYGYYAMDYWGQGTTVTVSS VL: DIQMTQSPSSLSASVGDRVIITCSASSSISSNYLHWYQQKPGKVPKLLIYRTSNLASGVPSRFSGSGSGTDYTLTISSLQPEDVATYYCQQGSSIPRFTSGGGTKVEIK
**A:** 9.62

**Q:** Please list pKd recorded for the binder Lc1/Hc1A (antibody, V domains shown) VH: QVQLVQSGAEVKKPGSSVKVSCKASGYTFTEYIIHWVRQAPGQGLEWIGWFYPESGSVKYNEAFKGRATLTADKSTSTAYMELSSLRSEDTAVYYCARHEERDYYGYYAMDYWGQGTTVTVSS VL: DIQMTQSPSSLSASVGDRVTITCSASSSISSNYLHWYQQKPGKVPKLLIYRTSNLASGVPSRFSGSGSGTDYTLTISSLQPEDVATYYCQQGSSIPRFTSGGGTKVEIK
**A:** 9.49
